Target: RAR-γ (Homo sapiens)
Sequence (P13631 with tags, fused parts or gaps limits assumed, species assumed): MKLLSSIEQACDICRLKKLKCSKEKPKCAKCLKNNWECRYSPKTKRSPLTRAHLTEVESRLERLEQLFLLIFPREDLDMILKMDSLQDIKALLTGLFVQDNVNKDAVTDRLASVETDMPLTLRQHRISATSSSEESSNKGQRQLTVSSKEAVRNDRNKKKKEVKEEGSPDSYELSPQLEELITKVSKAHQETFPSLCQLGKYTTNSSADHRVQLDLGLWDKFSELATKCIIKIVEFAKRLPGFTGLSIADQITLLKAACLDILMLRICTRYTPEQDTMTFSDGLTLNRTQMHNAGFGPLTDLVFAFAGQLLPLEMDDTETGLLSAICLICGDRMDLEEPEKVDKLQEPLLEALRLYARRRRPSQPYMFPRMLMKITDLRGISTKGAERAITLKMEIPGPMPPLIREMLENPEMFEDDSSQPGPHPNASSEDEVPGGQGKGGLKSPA
Assay: Transactivation competition assay (antagonist activity) in transfected HeLa cells
pIC50: −log10 of the molar value.

>  <structure smiles>
CC1(C)CC=C(c2ccccc2)c2cc(/C=C/c3ccc(C(=O)O)cc3)ccc21

>  <pIC50>
6.70

$$$$
>  <structure smiles>
CC1(C)CC=C(c2ccc3ccccc3c2)c2cc(/C=C/c3ccc(C(=O)O)cc3)ccc21

>  <pIC50>
6.05

$$$$
>  <structure smiles>
COc1ccc(C2=CCC(C)(C)c3ccc(/C=C/c4ccc(C(=O)O)cc4)cc32)cc1

>  <pIC50>
6.00

$$$$
>  <structure smiles>
CC1(C)CC=C(C#Cc2ccccc2)c2cc(/C=C/c3ccc(C(=O)O)cc3)ccc21

>  <pIC50>
6.52

$$$$
>  <structure smiles>
CC1(C)CC=C(c2ccccc2)c2cc(/C=C/c3ccc(C(=O)O)cc3Cl)ccc21

>  <pIC50>
5.70

$$$$

* * *

Molecular target: RAR-β (Homo sapiens, UniProt P10826)
Sequence (P10826 with tags, fused parts or gaps limits assumed, species assumed): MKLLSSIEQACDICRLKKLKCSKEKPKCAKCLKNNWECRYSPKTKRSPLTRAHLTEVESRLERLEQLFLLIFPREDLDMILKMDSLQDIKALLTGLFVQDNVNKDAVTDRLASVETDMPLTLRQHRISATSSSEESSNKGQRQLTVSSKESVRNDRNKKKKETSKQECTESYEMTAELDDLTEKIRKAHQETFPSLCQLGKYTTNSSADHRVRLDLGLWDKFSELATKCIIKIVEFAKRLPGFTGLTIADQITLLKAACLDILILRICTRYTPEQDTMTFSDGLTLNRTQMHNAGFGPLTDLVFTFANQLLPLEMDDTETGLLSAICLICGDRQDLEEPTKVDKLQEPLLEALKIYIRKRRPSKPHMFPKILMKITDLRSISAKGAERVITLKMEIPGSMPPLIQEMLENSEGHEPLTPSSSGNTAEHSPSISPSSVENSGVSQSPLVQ
Assay: Receptor transactivation, GAL4-RAR chimeric receptor/CAT reporter in HeLa cells
Format: cell-based
Conditions: HeLa cells, 24 hours

>  <compound>
CC1(C)CC=C(c2ccc3ccccc3c2)c2cc(/C=C/c3ccc(C(=O)O)cc3)ccc21 [Compound 6]

>  <Transactivation RAR-β % MAX>
0%

$$$$
>  <compound>
COc1ccc(C2=CCC(C)(C)c3ccc(/C=C/c4ccc(C(=O)O)cc4)cc32)cc1 [Compound 7]

>  <Transactivation RAR-β % MAX>
0%

$$$$
>  <compound>
CC1(C)CC=C(c2ccccc2)c2cc(/C=C/c3ccc(C(=O)O)cc3Cl)ccc21 [Compound 8]

>  <Transactivation RAR-β % MAX>
110%

$$$$
>  <compound>
CC1(C)CC=C(C#Cc2ccccc2)c2cc(/C=C/c3ccc(C(=O)O)cc3)ccc21 [Compound 5]

>  <Transactivation RAR-β % MAX>
0%

$$$$
>  <compound>
CC1=C(/C=C/C(C)=C/C=C/C(C)=C/C(=O)O)C(C)(C)CCC1 [All Trans RA, all trans retinoic acid, reference compound]

>  <Transactivation RAR-β % MAX>
100%

$$$$
>  <compound>
CC1(C)CC=C(c2ccccc2)c2cc(/C=C/c3ccc(C(=O)O)cc3)ccc21 [Compound 4]

>  <Transactivation RAR-β % MAX>
20%

$$$$

* * *

Reported IC50 by item:
Target: RAR-β (Homo sapiens)
Assay: Transactivation competition assay (antagonist activity) in transfected HeLa cells
measured parameter: IC50

>  <structure smiles>
CC1(C)CC=C(c2ccc3ccccc3c2)c2cc(/C=C/c3ccc(C(=O)O)cc3)ccc21

>  <measured parameter>
IC50

>  <result>
500 nM

$$$$
>  <structure smiles>
CC1(C)CC=C(C#Cc2ccccc2)c2cc(/C=C/c3ccc(C(=O)O)cc3)ccc21

>  <measured parameter>
IC50

>  <result>
300 nM

$$$$
>  <structure smiles>
COc1ccc(C2=CCC(C)(C)c3ccc(/C=C/c4ccc(C(=O)O)cc4)cc32)cc1

>  <measured parameter>
IC50

>  <result>
1000 nM

$$$$

* * *

Reported Transactivation RAR-α % MAX by item:
Target: RAR-α (Homo sapiens)
Sequence (P10276 with tags, fused parts or gaps limits assumed, species assumed): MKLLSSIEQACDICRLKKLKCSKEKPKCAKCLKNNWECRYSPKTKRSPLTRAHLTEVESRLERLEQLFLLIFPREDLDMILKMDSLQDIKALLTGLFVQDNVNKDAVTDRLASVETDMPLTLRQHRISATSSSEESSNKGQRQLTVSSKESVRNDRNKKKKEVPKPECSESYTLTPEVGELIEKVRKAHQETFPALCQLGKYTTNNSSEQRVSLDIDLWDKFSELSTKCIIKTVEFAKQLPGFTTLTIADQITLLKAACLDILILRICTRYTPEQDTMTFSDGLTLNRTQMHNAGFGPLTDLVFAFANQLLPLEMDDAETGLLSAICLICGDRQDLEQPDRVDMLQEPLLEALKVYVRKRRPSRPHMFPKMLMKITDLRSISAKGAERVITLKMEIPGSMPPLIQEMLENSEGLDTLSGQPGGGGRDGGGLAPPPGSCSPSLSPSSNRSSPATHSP
Assay: Receptor transactivation, GAL4-RAR chimeric receptor/CAT reporter in HeLa cells
Type: cell-based
Settings: 24 hours
measured parameter: Transactivation RAR-α % MAX (%)

>  <compound>
CC1(C)CC=C(C#Cc2ccccc2)c2cc(/C=C/c3ccc(C(=O)O)cc3)ccc21 [Compound 5]

>  <target of assay>
RAR-α (Homo sapiens)

>  <recorded number>
0

$$$$
>  <compound>
CC1(C)CC=C(c2ccccc2)c2cc(/C=C/c3ccc(C(=O)O)cc3Cl)ccc21 [Compound 8]

>  <target of assay>
RAR-α (Homo sapiens)

>  <recorded number>
0

$$$$
>  <compound>
CC1(C)CC=C(c2ccc3ccccc3c2)c2cc(/C=C/c3ccc(C(=O)O)cc3)ccc21 [Compound 6]

>  <target of assay>
RAR-α (Homo sapiens)

>  <recorded number>
0

$$$$
>  <compound>
COc1ccc(C2=CCC(C)(C)c3ccc(/C=C/c4ccc(C(=O)O)cc4)cc32)cc1 [Compound 7]

>  <target of assay>
RAR-α (Homo sapiens)

>  <recorded number>
0

$$$$
>  <compound>
CC1=C(/C=C/C(C)=C/C=C/C(C)=C/C(=O)O)C(C)(C)CCC1 [All Trans RA, all trans retinoic acid, reference compound]

>  <target of assay>
RAR-α (Homo sapiens)

>  <recorded number>
100

$$$$
>  <compound>
CC1(C)CC=C(c2ccccc2)c2cc(/C=C/c3ccc(C(=O)O)cc3)ccc21 [Compound 4]

>  <target of assay>
RAR-α (Homo sapiens)

>  <recorded number>
0

$$$$
